The values you see were collected from ChEMBL document CHEMBL3091323.

pIC50 values by entry
target: UniProt P08183; test: Inhibition of MDR1 in human doxorubicin-resistant A2780adr cells assessed as Calcein AM accumulation treated 30 mins before Calcein AM addition measured up to 90 mins by fluorescence assay
Sequence (P08183 whole entry): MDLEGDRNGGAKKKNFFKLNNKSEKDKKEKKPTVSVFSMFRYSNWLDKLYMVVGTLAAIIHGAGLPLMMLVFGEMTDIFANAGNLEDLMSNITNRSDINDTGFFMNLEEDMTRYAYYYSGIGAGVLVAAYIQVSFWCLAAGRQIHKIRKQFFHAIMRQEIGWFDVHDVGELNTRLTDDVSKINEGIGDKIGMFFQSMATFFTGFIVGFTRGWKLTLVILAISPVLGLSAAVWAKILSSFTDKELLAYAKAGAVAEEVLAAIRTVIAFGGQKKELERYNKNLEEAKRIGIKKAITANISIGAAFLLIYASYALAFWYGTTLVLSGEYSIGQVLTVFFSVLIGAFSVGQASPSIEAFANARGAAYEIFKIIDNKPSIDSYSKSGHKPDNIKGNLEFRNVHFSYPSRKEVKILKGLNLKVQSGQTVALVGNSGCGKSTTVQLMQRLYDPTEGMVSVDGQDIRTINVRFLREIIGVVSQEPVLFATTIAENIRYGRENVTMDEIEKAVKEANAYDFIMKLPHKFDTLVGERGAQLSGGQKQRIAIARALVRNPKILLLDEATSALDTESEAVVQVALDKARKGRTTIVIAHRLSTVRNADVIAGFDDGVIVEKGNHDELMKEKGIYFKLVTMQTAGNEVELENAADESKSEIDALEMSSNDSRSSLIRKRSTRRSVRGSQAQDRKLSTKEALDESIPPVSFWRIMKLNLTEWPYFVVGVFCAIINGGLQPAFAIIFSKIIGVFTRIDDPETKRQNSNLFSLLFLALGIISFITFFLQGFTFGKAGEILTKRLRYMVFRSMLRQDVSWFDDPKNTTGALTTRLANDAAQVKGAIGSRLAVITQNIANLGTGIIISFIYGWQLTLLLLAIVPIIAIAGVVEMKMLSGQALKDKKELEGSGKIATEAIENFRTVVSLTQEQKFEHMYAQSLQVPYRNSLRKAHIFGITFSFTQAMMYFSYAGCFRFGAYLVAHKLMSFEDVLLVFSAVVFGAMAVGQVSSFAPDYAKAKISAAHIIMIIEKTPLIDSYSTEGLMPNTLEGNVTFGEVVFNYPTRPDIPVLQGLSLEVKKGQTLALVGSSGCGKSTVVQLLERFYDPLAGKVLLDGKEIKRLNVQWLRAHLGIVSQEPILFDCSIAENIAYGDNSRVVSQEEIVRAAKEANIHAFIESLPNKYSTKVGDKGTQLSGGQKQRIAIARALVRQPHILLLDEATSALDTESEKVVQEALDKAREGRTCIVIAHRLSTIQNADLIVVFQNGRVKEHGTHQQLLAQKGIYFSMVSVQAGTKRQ
The value called pIC50 is obtained by taking minus log10 of the concentration in mol/L.

Reported pIC50 of COc1ccc(-c2nc(Nc3cccc(Br)c3)c3ccccc3n2)cc1OC : 4.93

Reported pIC50 of COc1ccc(-c2nc(Nc3cccc([N+](=O)[O-])c3)c3ccccc3n2)cc1OC : 5.02

Reported pIC50 of Brc1cccc(Nc2nc(-c3ccccc3)nc3ccccc23)c1 : 4.91

* * *

Biological target: Broad substrate specificity ATP-binding cassette transporter ABCG2 (Homo sapiens, UniProt Q9UNQ0)
Sequence (Q9UNQ0 whole entry): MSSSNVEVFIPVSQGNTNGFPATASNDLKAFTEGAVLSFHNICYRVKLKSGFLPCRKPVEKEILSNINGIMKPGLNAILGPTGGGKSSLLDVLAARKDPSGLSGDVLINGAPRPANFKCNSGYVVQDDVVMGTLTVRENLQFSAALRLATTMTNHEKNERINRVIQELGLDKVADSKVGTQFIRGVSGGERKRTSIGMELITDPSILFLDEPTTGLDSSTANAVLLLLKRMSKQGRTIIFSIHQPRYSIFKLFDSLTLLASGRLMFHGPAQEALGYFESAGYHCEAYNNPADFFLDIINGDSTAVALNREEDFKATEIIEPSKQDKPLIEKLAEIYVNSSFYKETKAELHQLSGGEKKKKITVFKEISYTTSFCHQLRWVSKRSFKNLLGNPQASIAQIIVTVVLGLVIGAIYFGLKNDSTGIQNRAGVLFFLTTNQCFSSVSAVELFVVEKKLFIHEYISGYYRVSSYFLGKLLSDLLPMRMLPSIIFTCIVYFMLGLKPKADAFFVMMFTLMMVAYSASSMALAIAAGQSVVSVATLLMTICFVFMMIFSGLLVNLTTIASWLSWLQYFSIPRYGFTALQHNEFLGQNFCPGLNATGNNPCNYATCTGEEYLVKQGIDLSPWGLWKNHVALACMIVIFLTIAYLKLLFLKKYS
Assay: Inhibition of human BCRP expressed in MDCK2 cells assessed as Hoechst 33342 accumulation treated 30 mins before Hoechst 33342 addition measured up to 120 mins by fluorescence assay
Format: cell-based, MDCK-II
IC50 values by entry
Could you give me the number in nM? Just the number is fine.

{"compoundSmiles": "COc1cc2nc(Nc3cccc([N+](=O)[O-])c3)nc(Nc3cccc([N+](=O)[O-])c3)c2cc1OC", "IC50, nM": 330}
{"compoundSmiles": "Brc1cccc(Nc2ncnc3ccccc23)c1", "IC50, nM": 1080}

Now for the compound whose IC50 we want.
Reported IC50 of COc1cc2ncnc(Nc3cccc(Br)c3)c2cc1OC : 1730

* * *

experiment: Cytotoxicity against MDCK cells after 72 hrs by MTT assay; format: cell-based, Canis lupus familiaris; conditions: dog
valueType: GI50 at 72 h
Put down the number, then write its unit next to it.

Some compounds with recorded GI50 at 72 h:
{"compoundSmiles": "COc1ccc(-c2nc(Nc3cccc([N+](=O)[O-])c3)c3ccccc3n2)cc1OC", "GI50 at 72 h": "20.8 µM"}
{"compoundSmiles": "COc1cc2ncnc(Nc3cccc([N+](=O)[O-])c3)c2cc1OC", "GI50 at 72 h": "1.5 µM"}
{"compoundSmiles": "O=[N+]([O-])c1cccc(Nc2ncnc3ccccc23)c1", "GI50 at 72 h": "18.3 µM"}

Now for the compound whose GI50 at 72 h we want.
Reported GI50 at 72 h of O=[N+]([O-])c1cccc(Nc2nc(-c3ccccc3)nc3ccccc23)c1 : 67.8 µM
